assay_text: self-splicing fitness, log relative to wild type (ln ratio); higher = more splicing; Tetrahymena group I intron in knt gene, E. coli kanamycin selection, DiMSum; sequences stand for … in CUCUCU…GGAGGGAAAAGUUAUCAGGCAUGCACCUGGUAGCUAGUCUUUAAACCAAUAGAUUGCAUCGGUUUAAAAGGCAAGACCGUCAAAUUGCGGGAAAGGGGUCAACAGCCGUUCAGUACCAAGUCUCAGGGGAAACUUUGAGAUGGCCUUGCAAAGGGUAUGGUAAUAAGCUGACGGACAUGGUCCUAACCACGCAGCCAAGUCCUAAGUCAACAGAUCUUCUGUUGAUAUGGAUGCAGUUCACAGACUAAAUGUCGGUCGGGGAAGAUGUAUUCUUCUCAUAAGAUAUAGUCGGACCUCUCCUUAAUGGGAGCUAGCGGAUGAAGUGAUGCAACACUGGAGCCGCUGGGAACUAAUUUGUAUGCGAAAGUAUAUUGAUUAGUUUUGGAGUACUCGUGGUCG;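 further: selection with 25 µg/mL kanamycin versus none on LB agar overnight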
recorded_conditions: 30 °C
Note that class boundaries on self-splicing fitness (ln) are 0 = under -3, 1 = from -3 up to -2, 2 = -2 and over

| item_sequence | label_class |
| --- | --- |
| CAGAAGCAAUAUUACGUGCG | 2 |
| CCCCAGCAAUAUUACGAGUG | 0 |
| AUUAAGCAAUAUUACGCUAC | 1 |
| ACUCAGCAAUAUUACGCCAA | 2 |
| UGCAAGCAAUAUUACGGCCU | 2 |
| GCUCAGCAAUAUUACGCGGG | 0 |
| AGUCAGCAAUAUUACGCAAA | 2 |
| ACAGAGCAAUAUUACGUUAA | 0 |
| AUAAAGCAAUAUUACGAAUU | 2 |
| ACACAGCAAUAUUACGCAAA | 0 |
| AUCAAGCAAUAUUACGUGUG | 2 |
| CCCUAGCAAUAUUACGCAAG | 0 |
| AAUUAGCAAUAUUACGCGAA | 2 |
| UUUGAGCAAUAUUACGGCAU | 2 |
| GGUUAGCAAUAUUACGCGCA | 2 |
| ACAUAGCAAUAUUACGGCUU | 2 |
| GCGAAGCAAUAUUACGAGAA | 1 |
| UACCAGCAAUAUUACGCGCA | 2 |
| ACCGAGCAAUAUUACGCCUC | 1 |
| AACCAGCAAUAUUACGCGUC | 1 |
| UACCAGCAAUAUUACGGCGG | 2 |
| CAUGAGCAAUAUUACGGUGU | 0 |
| UGUAAGCAAUAUUACGUAGG | 2 |
| GAUAAGCAAUAUUACGACCU | 2 |
| ACGGAGCAAUAUUACGACCU | 2 |
| ACUCAGCAAUAUUACGCAUC | 1 |
| CCCAAGCAAUAUUACGGGAG | 0 |
| GAUUAGCAAUAUUACGCAUG | 2 |
| ACAAAGCAAUAUUACGCUUG | 2 |
| CCGUAGCAAUAUUACGUGUC | 0 |
| GUAGAGCAAUAUUACGCUCG | 2 |
| AGCUAGCAAUAUUACGUUGA | 1 |

* * *

assay_text: self-splicing fitness, log relative to wild type (ln ratio); higher = more splicing; Tetrahymena group I intron in knt gene, E. coli kanamycin selection, DiMSum; sequences stand for … in CUCUCU…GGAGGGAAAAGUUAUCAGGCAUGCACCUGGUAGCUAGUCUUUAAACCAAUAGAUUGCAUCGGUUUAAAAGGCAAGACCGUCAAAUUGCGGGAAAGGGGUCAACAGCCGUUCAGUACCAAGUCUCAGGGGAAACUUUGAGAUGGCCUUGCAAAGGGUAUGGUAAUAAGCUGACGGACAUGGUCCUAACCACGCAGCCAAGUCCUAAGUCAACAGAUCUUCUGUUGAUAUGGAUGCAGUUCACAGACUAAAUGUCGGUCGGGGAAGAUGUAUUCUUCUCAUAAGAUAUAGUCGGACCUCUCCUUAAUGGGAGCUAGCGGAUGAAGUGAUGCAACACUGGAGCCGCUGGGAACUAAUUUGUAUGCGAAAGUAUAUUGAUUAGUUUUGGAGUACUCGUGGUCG
recorded_conditions: 30 °C
Classification field: enter rule met for self-splicing fitness (ln) values not below -3, rule not met for values below it.

| item_sequence | label_class |
| --- | --- |
| GCUGAGCAAUAUUACGUGUG | rule not met |
| AGCCAGCAAUAUUACGUUCU | rule met |
| CUUUAGCAAUAUUACGUGGG | rule not met |
| UAACAGCAAUAUUACGUUCC | rule met |
| CACUAGCAAUAUUACGCCCC | rule met |
| GCUGAGCAAUAUUACGACAA | rule not met |
| AUACAGCAAUAUUACGGGUA | rule met |
| CACCAGCAAUAUUACGCGGG | rule not met |
| UCGAAGCAAUAUUACGCAAG | rule met |
| GCGCAGCAAUAUUACGUAAG | rule met |
| AUACAGCAAUAUUACGGCUC | rule met |
| CUCCAGCAAUAUUACGUAUA | rule not met |
| GAUAAGCAAUAUUACGUUAA | rule not met |
| GACCAGCAAUAUUACGUUGG | rule not met |
| CCUUAGCAAUAUUACGCCUU | rule not met |
| GCCAAGCAAUAUUACGCUAA | rule met |
| CUCCAGCAAUAUUACGAAGU | rule not met |
| GCUUAGCAAUAUUACGCCCU | rule met |
| CUUAAGCAAUAUUACGGGAU | rule met |
| CGUGAGCAAUAUUACGAAUG | rule met |
| CGCUAGCAAUAUUACGCCGU | rule met |
| AAGAAGCAAUAUUACGGCGG | rule met |
| UGCCAGCAAUAUUACGGAGC | rule not met |
| UGGCAGCAAUAUUACGUGAG | rule met |
| CAAAAGCAAUAUUACGACUU | rule met |
| GUUCAGCAAUAUUACGUCGC | rule met |
| UGCGAGCAAUAUUACGUGCG | rule met |
| UUGGAGCAAUAUUACGCACG | rule met |
| AAGAAGCAAUAUUACGAAGG | rule not met |
| CAAAAGCAAUAUUACGAGCG | rule met |
| UGUAAGCAAUAUUACGUCAC | rule met |
| UUGCAGCAAUAUUACGUUGU | rule not met |
